- systemUnderTest: UniProt:P03070
observable: IC50 (µM)
Give a bare numeral; the unit µM is implied.

query: Tell me the measured IC50 of `Cc1ccc(Nc2oc3cc(=O)ccc-3cc2C(N)=O)cc1` , please.
result: 33.8

query: Tell me the measured IC50 of N#CC1C(=N)C2=C(N3CCCCC3)CCCC2C1(C#N)C#N (stereo not drawn) , please.
result: 9.99

* * *

- systemUnderTest: Large T antigen (Simian virus 40)
- Sequence (P03070 whole entry): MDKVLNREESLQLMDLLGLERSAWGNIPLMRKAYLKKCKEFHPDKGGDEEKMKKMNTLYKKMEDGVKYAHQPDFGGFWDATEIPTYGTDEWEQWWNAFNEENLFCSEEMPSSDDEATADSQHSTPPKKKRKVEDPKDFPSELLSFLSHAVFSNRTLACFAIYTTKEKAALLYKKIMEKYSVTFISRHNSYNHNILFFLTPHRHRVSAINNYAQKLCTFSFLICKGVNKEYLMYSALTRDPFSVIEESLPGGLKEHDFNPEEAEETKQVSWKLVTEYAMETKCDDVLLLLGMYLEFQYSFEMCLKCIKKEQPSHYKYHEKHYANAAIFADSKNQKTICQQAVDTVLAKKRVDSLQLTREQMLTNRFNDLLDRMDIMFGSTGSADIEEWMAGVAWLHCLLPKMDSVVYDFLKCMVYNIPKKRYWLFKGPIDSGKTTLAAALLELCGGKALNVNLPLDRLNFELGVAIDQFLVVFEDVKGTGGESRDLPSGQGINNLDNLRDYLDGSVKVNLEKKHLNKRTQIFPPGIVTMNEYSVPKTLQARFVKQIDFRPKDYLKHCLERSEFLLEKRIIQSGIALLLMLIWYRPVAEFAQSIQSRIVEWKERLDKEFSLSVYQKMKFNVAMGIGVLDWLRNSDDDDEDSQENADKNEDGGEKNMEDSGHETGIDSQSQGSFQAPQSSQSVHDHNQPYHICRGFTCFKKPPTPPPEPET
pIC50: −log10 of the molar value.
Decide by pIC50: equal to or exceeding 5 means met, less means not met.

CN(C)c1ccc(N=CCC(=O)c2ccccc2)cc1 = met

query: Determine whether this compound has pIC50 no lower than 5: CCN(CC)CCN1C(=O)C(=O)C(C(=O)c2ccc(C)cc2)C1c1cccnc1 (stereo unspecified)
result: not met

query: Determine whether this compound has pIC50 no lower than 5: O=C1CCCC2=Nc3[nH]c(=S)[nH]c(=O)c3C(c3ccc(Br)cc3)C12 (stereo unspecified)
result: not met

query: Determine whether this compound has pIC50 no lower than 5: `Cc1cc(-c2nc3c4c5c(sc4nc(=O)n3[nH]2)CCC5)c(C)o1`
result: not met

query: Determine whether this compound has pIC50 no lower than 5: `CC1(C)CC(=O)C(=CNc2ccc(O)cc2)C(=O)C1`
result: met
